meta.source: patent US20210009542A1

Target: His tagged PTPN2 (TC45) protein (Homo sapiens, UniProt P17706)
Construct: made in house
Sequence (P17706 with tags, fused parts or gaps isoform P17706-2): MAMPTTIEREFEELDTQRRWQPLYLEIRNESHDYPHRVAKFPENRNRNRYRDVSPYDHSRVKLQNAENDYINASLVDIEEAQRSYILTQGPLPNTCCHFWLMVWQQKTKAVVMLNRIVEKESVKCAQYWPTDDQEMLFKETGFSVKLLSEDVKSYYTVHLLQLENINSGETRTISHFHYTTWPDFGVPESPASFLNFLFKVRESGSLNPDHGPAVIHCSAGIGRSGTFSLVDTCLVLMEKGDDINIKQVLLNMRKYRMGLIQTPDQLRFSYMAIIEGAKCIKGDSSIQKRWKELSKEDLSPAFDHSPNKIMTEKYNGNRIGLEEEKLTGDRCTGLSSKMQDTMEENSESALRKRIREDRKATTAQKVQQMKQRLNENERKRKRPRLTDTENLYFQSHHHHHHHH
Test: Mobility shift assay (MSA) for potency of PTPN2 inhibitors
Format: biochemical
Details: read-out: PTPN2 MSA IC50

molecule | IC50
CC[C@H]1C[C@@H]1COc1ccc2cc(O)c(N3CC(=O)NS3(=O)=O)c(F)c2c1 (racemic) | 1 to 10 nM
O=C1CN(c2c(O)cc3ccc(-c4cccnc4)cc3c2F)S(=O)(=O)N1 | 1 to 10 nM
CC(C)CC(=O)Nc1ccc2cc(O)c(N3CC(=O)NS3(=O)=O)c(F)c2c1 | 1 to 10 nM
O=C1CN(c2c(O)cc3ccc(OCCN4CCCCC4)cc3c2F)S(=O)(=O)N1 | 10 to 100 nM
CC(C)OCCNc1ccc2cc(O)c(N3CC(=O)NS3(=O)=O)c(F)c2c1 | 1 to 10 nM
CS(=O)(=O)N1CC(Nc2ccc3cc(O)c(N4CC(=O)NS4(=O)=O)c(F)c3c2)C1 | 1 to 10 nM
O=C1CN(c2c(O)cc3ccc(C4CN(C(=O)C5CC5)C4)cc3c2F)S(=O)(=O)N1 | 1 to 10 nM
O=C1CN(c2c(O)cc3ccc(C4=CCN(S(=O)(=O)C5CCC5)C4)cc3c2F)S(=O)(=O)N1 | < 1 nM
CCC(=O)CCOc1ccc2cc(O)c(N3CC(=O)NS3(=O)=O)c(F)c2c1 | < 1 nM
CC(C)S(=O)(=O)N1CC=C(c2ccc3cc(O)c(N4CC(=O)NS4(=O)=O)c(F)c3c2)C1 | < 1 nM
O=C1CN(c2c(O)cc3ccc(CC4CCN(CC(F)(F)F)CC4)cc3c2F)S(=O)(=O)N1 | 1 to 10 nM

###

Biological target: His tagged PTPN2 (TC45) protein (Homo sapiens, UniProt P17706)
Construct: made in house
Sequence (P17706 with tags, fused parts or gaps isoform P17706-2): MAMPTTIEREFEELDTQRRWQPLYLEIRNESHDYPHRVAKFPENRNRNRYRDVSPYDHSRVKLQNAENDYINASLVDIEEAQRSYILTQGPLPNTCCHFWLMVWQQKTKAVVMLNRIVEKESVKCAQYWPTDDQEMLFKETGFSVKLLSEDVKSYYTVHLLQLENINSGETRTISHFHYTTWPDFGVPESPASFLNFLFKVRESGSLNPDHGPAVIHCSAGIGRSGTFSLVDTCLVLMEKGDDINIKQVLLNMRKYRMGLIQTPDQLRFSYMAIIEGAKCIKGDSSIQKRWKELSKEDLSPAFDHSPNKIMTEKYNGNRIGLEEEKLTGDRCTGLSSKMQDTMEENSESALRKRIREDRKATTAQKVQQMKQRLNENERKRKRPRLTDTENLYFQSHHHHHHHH
Assay: Mobility shift assay (MSA) for potency of PTPN2 inhibitors
Assay type: biochemical
Conditions: read-out: PTPN2 MSA IC50
pIC50: −log10 of the molar value.
Below: a set of entries, each annotated with reported pIC50.
readout_type: pIC50

compound | readout_type | result
O=C1CN(c2c(O)cc3ccc(OCCN4CCOCC4)cc3c2F)S(=O)(=O)N1 [Compound 100] | pIC50 | 8.00 to 9.00
Nc1ccccc1CS(=O)(=O)N1CC=C(c2ccc3cc(O)c(N4CC(=O)NS4(=O)=O)c(F)c3c2)C1 [Compound 195] | pIC50 | > 9.00
O=C1CN(c2c(O)cc3ccc(OC4COC4)cc3c2F)S(=O)(=O)N1 [Compound 274] | pIC50 | 8.00 to 9.00
O=C1CN(c2c(O)cc3ccc(C4CN(S(=O)(=O)C5CC5)C4)cc3c2F)S(=O)(=O)N1 [Compound 206] | pIC50 | 8.00 to 9.00

###

target: His tagged PTPN2 (TC45) protein (Homo sapiens); construct: made in house; test: Mobility shift assay (MSA) for potency of PTPN2 inhibitors; type: biochemical; details: read-out: PTPN2 MSA IC50

molecule | IC50
O=C1CN(c2c(O)cc3ccc(C4CCNCC4)cc3c2F)S(=O)(=O)N1 [Compound 299] | 1 to 10 nM
CC(C)CCNc1ccc2cc(O)c(N3CC(=O)NS3(=O)=O)c(F)c2c1 [Compound 200] | 1 to 10 nM
COc1ccc2cc(O)c(N3CC(=O)NS3(=O)=O)c(F)c2c1 [Compound 124] | 1 to 10 nM
O=C1CN(c2c(O)cc3ccc(C4=CCN(S(=O)(=O)c5ccccc5)C4)cc3c2F)S(=O)(=O)N1 [Compound 315] | < 1 nM
O=C1CN(c2c(O)cc3ccc(OCC(=O)N4CCCC4)cc3c2F)S(=O)(=O)N1 [Compound 283] | 1 to 10 nM
O=C1CN(c2c(O)cc3ccc(OCCC4CCNCC4)cc3c2F)S(=O)(=O)N1 [Compound 108] | 1 to 10 nM
O=C1CN(c2c(O)cc3ccc(OCC(O)C4CC4)cc3c2F)S(=O)(=O)N1 (stereo not shown) [Compound 150] | 1 to 10 nM
CN(C)CCOc1ccc2cc(O)c(N3CC(=O)NS3(=O)=O)c(F)c2c1 [Compound 131] | 1 to 10 nM
CC(C)Oc1ccc2cc(O)c(N3CC(=O)NS3(=O)=O)c(F)c2c1 [Compound 279] | 1 to 10 nM
O=C1CN(c2c(O)cc3ccc(CC(F)F)cc3c2F)S(=O)(=O)N1 [Compound 196] | 1 to 10 nM
CC(C)(C)OCCOc1ccc2cc(O)c(N3CC(=O)NS3(=O)=O)c(F)c2c1 [Compound 217] | 1 to 10 nM
[2H]C([2H])([2H])Oc1ccc2cc(O)c(N3CC(=O)NS3(=O)=O)c(F)c2c1 [Compound 118] | 1 to 10 nM
O=C1CN(c2c(O)cc3ccc(CCC4CC4)cc3c2F)S(=O)(=O)N1 [Compound 209] | 1 to 10 nM
O=C1CN(c2c(O)cc3ccc(NCCC4CC4)cc3c2F)S(=O)(=O)N1 [Compound 224] | 1 to 10 nM
O=C1CN(c2c(O)cc3ccc(OCC(F)F)cc3c2F)S(=O)(=O)N1 [Compound 302] | 1 to 10 nM
O=C1CN(c2c(O)cc3ccc(NCCC(F)(F)F)cc3c2F)S(=O)(=O)N1 [Compound 169] | 1 to 10 nM
CNc1ccc2cc(O)c(N3CC(=O)NS3(=O)=O)c(F)c2c1 [Compound 107] | 10 to 100 nM
COc1ccc2c(F)c(O)c(N3CC(=O)NS3(=O)=O)c(F)c2c1 [Compound 117] | 1 to 10 nM
O=C1CN(c2c(O)cc3ccc(OCCNS(=O)(=O)C4CC4)cc3c2F)S(=O)(=O)N1 [Compound 127] | < 1 nM
CCCC(C)S(=O)(=O)N1CC=C(c2ccc3cc(O)c(N4CC(=O)NS4(=O)=O)c(F)c3c2)C1 (stereo not shown) [Compound 294] | < 1 nM
CC1(COc2ccc3cc(O)c(N4CC(=O)NS4(=O)=O)c(F)c3c2)COC1 [Compound 230] | 1 to 10 nM
O=C1CN(c2c(O)cc3ccc(OCCNC4CC4)cc3c2F)S(=O)(=O)N1 [Compound 142] | 1 to 10 nM
O=C1CN(c2c(O)cc3ccc(NCC4CC4)cc3c2F)S(=O)(=O)N1 [Compound 202] | 1 to 10 nM
CC(C)NC(=O)Oc1ccc2cc(O)c(N3CC(=O)NS3(=O)=O)c(F)c2c1 [Compound 103] | 1 to 10 nM
COc1ccc(-c2ccc3cc(O)c(N4CC(=O)NS4(=O)=O)c(F)c3c2)s1 [Compound 227] | 1 to 10 nM
NCCOc1ccc2cc(O)c(N3CC(=O)NS3(=O)=O)c(F)c2c1 [Compound 309] | 1 to 10 nM
COCCOc1ccc2cc(O)c(N3CC(=O)NS3(=O)=O)c(F)c2c1 [Compound 119] | 1 to 10 nM
CC(C)OCCOc1ccc2cc(O)c(N3CC(=O)NS3(=O)=O)c(F)c2c1 [Compound 215] | 1 to 10 nM
CC(C)CN(C)CCOc1ccc2cc(O)c(N3CC(=O)NS3(=O)=O)c(F)c2c1 [Compound 253] | 1 to 10 nM
O=C1CN(c2c(O)cc3ccc(OCCC(F)(F)F)cc3c2F)S(=O)(=O)N1 [Compound 180] | 1 to 10 nM
CS(=O)(=O)N1CCC(F)(COc2ccc3cc(O)c(N4CC(=O)NS4(=O)=O)c(F)c3c2)C1 (stereo not shown) [Compound 307] | 1 to 10 nM
CC(C)COc1ccc2cc(O)c(N3CC(=O)NS3(=O)=O)c(F)c2c1 [Compound 134] | > 100 nM
O=C1CN(c2c(O)cc3ccc(OCCCn4cccn4)cc3c2F)S(=O)(=O)N1 [Compound 183] | 1 to 10 nM
CC(C)(C#N)CCOc1ccc2cc(O)c(N3CC(=O)NS3(=O)=O)c(F)c2c1 [Compound 120] | < 1 nM
